System: P. falciparum Dd2 (Multidrug Resistant)
PROTOCOL_SUMMARY: Malaria model, multidrug resistant P. falciparum
Assay type: cell-based
EXPERIMENTAL_CONDITIONS: Dd2; read-out: IC50 (nM) vs P. falciparum Dd2 (Multidrug Resistant)
OBSERVED_PROPERTY: IC50 (nM)
Note: unit nM is implicit; provide only the numeric part.

Request: Please give the measured IC50 for this molecule: CCN(CC)c1ccc(C(=C2C=CC(C)C=C2)c2ccc(N(CC)CC)cc2)cc1 (stereo not shown) [TPM 6]
Result: 48.9

----------
Tested on: P. falciparum Dd2 (Multidrug Resistant)
PROTOCOL_SUMMARY: Malaria model, multidrug resistant P. falciparum
Format: cell-based
EXPERIMENTAL_CONDITIONS: Plasmodium falciparum, DD2, read-out: IC50 (nM) vs P. falciparum Dd2 (Multidrug Resistant)
OBSERVED_PROPERTY: IC50 (nM)
Field format: number, assumed nM, no unit text.

Request: Query (compound): CCN(CC)CCCC(C)Nc1ccnc2cc(Cl)ccc12 (stereo not shown) [Chloroquine, reference compound] ; field requested: IC50
Result: 140
